Data provenance is patent US20180273528A1.

target: His-TEV-DYRK1A Kinase domain (aa127-485) (Homo sapiens, UniProt Q13627); construct: His-TEV-DYRK1A Kinase domain (aa127-485); His tag (N); TEV protease cleavage site (N); assay: Kinase ADP assay (ADP Hunter), DYRK1A kinase domain; format: biochemical; settings: 20 μM ATP
experimental.readout: IC50 (µM)

Record excerpt, results attached:
COc1ccccc1CCn1c(C)nc2ccc(-c3cc(N)nc(N)c3)nc21; 0.021
Cc1nc2ccc(-c3cc(N)nc(N)c3)nc2n1CCOc1cccc(F)n1; 0.011

I = Cc1nc2ccc(-c3cc(N)nc(N)c3)nc2n1C[C@@H](C)Oc1ccccn1 (single isomer, unassigned)
II = Cc1nc2ccc(-c3cc(N)nc(N)c3)nc2n1C[C@H](C)Oc1cccc(Br)n1
Lower IC50: I or II ? // respond with label for picked entry II

* * *

molecular target: DYRK1B (Homo sapiens, UniProt Q9Y463); construct: full-length human kinases from Carna Biosciences; purchased Carna Biosciences 04-131; test: Kinase TR-FRET assay, DYRK1B; assay type: biochemical; settings: full-length human kinase, 10 μM ATP
Sequence (Q9Y463 whole entry): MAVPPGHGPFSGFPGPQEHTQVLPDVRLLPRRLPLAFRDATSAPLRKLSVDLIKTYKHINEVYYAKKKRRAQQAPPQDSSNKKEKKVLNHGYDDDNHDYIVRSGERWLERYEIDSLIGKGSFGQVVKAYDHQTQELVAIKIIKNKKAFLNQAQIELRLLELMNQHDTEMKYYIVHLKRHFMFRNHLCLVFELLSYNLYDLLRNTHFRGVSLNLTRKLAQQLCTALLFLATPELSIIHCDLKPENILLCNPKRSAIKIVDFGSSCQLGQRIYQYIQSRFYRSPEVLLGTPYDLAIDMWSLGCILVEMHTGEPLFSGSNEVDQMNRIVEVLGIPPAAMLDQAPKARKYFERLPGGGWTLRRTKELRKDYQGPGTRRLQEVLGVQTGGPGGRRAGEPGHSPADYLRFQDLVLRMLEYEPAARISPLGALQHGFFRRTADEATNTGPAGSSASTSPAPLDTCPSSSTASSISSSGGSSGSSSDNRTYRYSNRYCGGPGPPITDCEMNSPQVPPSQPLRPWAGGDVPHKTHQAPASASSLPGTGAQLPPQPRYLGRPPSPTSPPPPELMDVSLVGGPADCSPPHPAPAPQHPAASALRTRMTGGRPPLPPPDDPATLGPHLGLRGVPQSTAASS
experimental.readout: IC50 (µM)

Record excerpt, results attached:
Cc1nc2ccc(-c3cc(N)nc(N)c3)nc2n1C[C@@H](C)Oc1cccc(Cl)n1 (single isomer, unassigned) [Example 177]; 0.005
Cc1nc2ccc(-c3cc(N)nc(N)c3)nc2n1Cc1cccs1 [Example 20]; 0.016

A = Cc1nc2ccc(-c3cc(N)nc(N)c3)nc2n1CCc1ccc2c(c1)OCO2 [Example 73]
B = Nc1cc(-c2ccc3nc(Cl)n(C4CCCC4)c3n2)cc(N)n1 [Example 220]
C = Cc1nc2ccc(-c3cc(N)nc(N)c3)nc2n1CCc1ccco1 [Example 19]
Order these by IC50, descending, and give the full ranking. Give the labels in the order specified. B, A, C

* * *

molecular target: DYRK1A (Homo sapiens, UniProt Q13627); assay: Cellular DYRK1 autophosphorylation assay in U2-OS cells; assay type: cell-based; set-up: full-length, wild-type human DYRK1A (NM_001396) with an HA tag; expressed in transfected cells; host or cells: human U2-OS osteosarcoma cells, transient transfection of a pcDNA3.1 plasmid; settings: U2-OS cells transfected with HA-tagged human DYRK1A, 5 hours exposure; read-out: IC50 (μM) P-Ser520-Dyrk1A -Cell assay
experimental.readout: IC50 (µM)

CCOc1cccc(CCn2c(C)nc3ccc(-c4cc(N)nc(N)c4)nc32)c1 [Example 90]; 0.129
Cc1nc2ccc(-c3cc(N)nc(N)c3)nc2n1CCOc1ccc(F)cc1 [Example 198]; 0.092
Cc1nc2ccc(-c3cc(N)nc(N)c3)nc2n1CCc1cccc(C(F)(F)F)c1 [Example 91]; 0.062

A = Cc1nc2ccc(-c3cc(N)nc(N)c3)nc2n1CCc1ccco1 [Example 19]
B = Cc1nc2ccc(-c3cc(N)nc(N)c3)nc2n1CC1CCCC1 [Example 89]
Lower IC50: A or B ? // respond with label for picked entry B

A = CCC1(Cn2c(C)nc3ccc(-c4cc(N)nc(N)c4)nc32)CC1 [Example 88]
B = COc1cc(Cn2c(C)nc3ccc(-c4cc(N)nc(N)c4)nc32)ccn1 [Example 72]
Lower IC50: A or B ? // respond with label for picked entry A
(A: 0.103 µM, B: 0.184 µM)

A = Cc1nc2ccc(-c3cc(N)nc(N)c3)nc2n1CCC1CCOCC1 [Example 78]
B = Cc1nc2ccc(-c3cc(N)nc(N)c3)nc2n1CCC(C)C [Example 75]
Which value of IC50 is numerically greater: that of A or that of B ? // respond with label for picked entry A
(A: 0.133 µM, B: 0.035 µM)

* * *

target: His-TEV-DYRK1A Kinase domain (aa127-485) (Homo sapiens, UniProt Q13627); construct: His-TEV-DYRK1A Kinase domain (aa127-485); His tag (N); TEV protease cleavage site (N); test: Kinase ADP assay (ADP Hunter), DYRK1A kinase domain; assay type: biochemical; conditions: 20 μM ATP
experimental.readout: IC50 (µM)

Record excerpt, results attached:
Cc1nc2ccc(-c3cc(N)nc(N)c3)nc2n1[C@H]1C[C@H]2C[C@@H]([C@@H]1C)C2(C)C; 0.367
Cc1nc2ccc(-c3cc(N)nc(N)c3)nc2n1CC1Cc2ccccc21 (single isomer, unassigned) [Example 113]; 0.01
Cc1nc2ccc(-c3cc(N)nc(N)c3)nc2n1C[C@H](C)Sc1ccccc1 (single isomer, unassigned); 0.016

A = Cc1nc2ccc(-c3cc(N)nc(N)c3)nc2n1CCOc1cccc(Cl)n1
B = Cc1nc2ccc(-c3cc(N)nc(N)c3)nc2n1CC1CC1(Cl)Cl (centres unmarked)
C = Cc1nc2ccc(-c3cc(N)nc(N)c3)nc2n1C[C@H](C)Oc1cccc(F)n1 (single isomer, unassigned)
D = Cc1nc2ccc(-c3cc(N)nc(N)c3)nc2n1Cc1cc(F)ccc1F
Rank ascending by IC50. Give the labels in the order specified. A, B, D, C

* * *

molecular target: His-TEV-DYRK1A Kinase domain (aa127-485) (Homo sapiens); construct: His-TEV-DYRK1A Kinase domain (aa127-485); His tag (N); TEV protease cleavage site (N); experiment: Kinase ADP assay (ADP Hunter), DYRK1A kinase domain; assay type: biochemical; settings: 20 μM ATP
experimental.readout: IC50 (µM)

Record excerpt, results attached:
Cc1nc2ccc(-c3cc(N)nc(N)c3)nc2n1CC1Cc2ccccc2C1 [Example 114]; 0.005
Cc1nc2ccc(-c3ccnc(N)c3)nc2n1CCC1CCCCC1 [Example 237]; 0.045
Cc1nc2ccc(-c3cc(N)nc(N)c3)nc2n1Cc1ccccn1 [Example 6]; 0.493

a = Cc1nc2ccc(-c3cc(N)nc(N)c3)nc2n1CCC1CC1 [Example 17]
b = Cc1nc2ccc(-c3cc(N)nc(N)c3)nc2n1[C@H]1C[C@@H]1Cc1ccccc1 (single isomer, unassigned) [Example 138]
Lower IC50: a or b ? // respond with label for picked entry a

* * *

target: CDK9 (Homo sapiens); construct: full-length human kinases from Carna Biosciences; purchased Carna Biosciences 04-110; experiment: Kinase TR-FRET assay, CDK9; type: biochemical; settings: full-length human kinase, 10 μM ATP
Sequence (P50750 whole entry): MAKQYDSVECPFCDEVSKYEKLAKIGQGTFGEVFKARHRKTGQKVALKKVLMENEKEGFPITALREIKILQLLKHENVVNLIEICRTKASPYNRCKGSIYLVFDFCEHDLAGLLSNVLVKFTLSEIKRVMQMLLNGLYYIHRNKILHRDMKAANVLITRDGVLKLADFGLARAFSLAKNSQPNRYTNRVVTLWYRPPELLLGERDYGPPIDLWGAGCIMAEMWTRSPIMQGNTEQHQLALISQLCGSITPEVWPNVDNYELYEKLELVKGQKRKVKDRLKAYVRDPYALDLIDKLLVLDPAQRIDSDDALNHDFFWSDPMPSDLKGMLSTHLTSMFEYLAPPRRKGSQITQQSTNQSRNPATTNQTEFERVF
Sequence (O60563 whole entry partner): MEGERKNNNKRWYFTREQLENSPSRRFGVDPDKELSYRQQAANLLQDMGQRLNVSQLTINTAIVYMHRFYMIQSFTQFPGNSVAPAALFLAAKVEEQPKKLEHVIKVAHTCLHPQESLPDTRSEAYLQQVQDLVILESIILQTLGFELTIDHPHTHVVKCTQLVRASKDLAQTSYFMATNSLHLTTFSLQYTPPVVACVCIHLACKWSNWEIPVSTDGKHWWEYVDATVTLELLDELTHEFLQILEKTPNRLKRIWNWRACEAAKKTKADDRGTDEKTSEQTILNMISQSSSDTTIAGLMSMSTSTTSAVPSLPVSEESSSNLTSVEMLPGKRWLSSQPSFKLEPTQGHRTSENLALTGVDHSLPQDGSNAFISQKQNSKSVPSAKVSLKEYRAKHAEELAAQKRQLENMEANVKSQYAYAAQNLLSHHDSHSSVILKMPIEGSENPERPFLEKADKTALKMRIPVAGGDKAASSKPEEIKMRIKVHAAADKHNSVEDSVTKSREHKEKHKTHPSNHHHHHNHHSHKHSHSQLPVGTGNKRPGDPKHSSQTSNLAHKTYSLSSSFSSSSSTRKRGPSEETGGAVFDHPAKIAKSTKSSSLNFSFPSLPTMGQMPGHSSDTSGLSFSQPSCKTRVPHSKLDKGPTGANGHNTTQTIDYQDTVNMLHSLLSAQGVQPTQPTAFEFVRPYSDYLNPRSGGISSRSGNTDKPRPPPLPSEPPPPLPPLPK
experimental.readout: IC50 (µM)

Cc1nc2ccc(-c3cc(N)nc(N)c3)nc2n1CCC(C)C; 0.843
Cc1nc2ccc(-c3cc(N)nc(N)c3)nc2n1CCC1CCCCC1; 0.47
COC1CCCCC1CCn1c(C)nc2ccc(-c3cc(N)nc(N)c3)nc21 (stereo not drawn); 1.8
Cc1nc2ccc(-c3cc(N)nc(N)c3)nc2n1CCc1cnn(-c2ccccc2)c1; 12.5
CCn1c(C)nc2ccc(-c3cc(N)nc(N)c3)nc21; 3.39
CCC(C)Cn1c(C)nc2ccc(-c3cc(N)nc(N)c3)nc21 (stereo not drawn); 1.4
N#Cc1nc2ccc(-c3cc(N)nc(N)c3)nc2n1CCCC(F)(F)F; 0.713
Cc1nc2ccc(-c3cc(N)nc(N)c3)nc2n1C1CC1; 2.15

A = Cc1nc2ccc(-c3cc(N)nc(N)c3)nc2n1C[C@H](C)Oc1cccc(Br)n1
B = Cc1nc2ccc(-c3cc(N)nc(N)c3)nc2n1Cc1cc(OC(F)(F)F)ccc1F
Which value of IC50 is numerically greater: that of A or that of B ? // respond with label for picked entry B

* * *

target: DYRK1A (Homo sapiens, UniProt Q13627); assay: Cellular DYRK1 autophosphorylation assay in U2-OS cells; format: cell-based; design: full-length, wild-type human DYRK1A (NM_001396) with an HA tag; expressed in transfected cells; host or cells: human U2-OS osteosarcoma cells, transient transfection of a pcDNA3.1 plasmid; conditions: U2-OS cells transfected with HA-tagged human DYRK1A, 5 hours exposure; read-out: IC50 (μM) P-Ser520-Dyrk1A -Cell assay
experimental.readout: IC50 (µM)

Cc1nc2ccc(-c3cc(N)nc(N)c3)nc2n1CCOc1ccccn1; 0.089
Cc1nc2ccc(-c3cc(N)nc(N)c3)nc2n1CCOc1ccccc1; 0.035
Cc1nc2ccc(-c3cc(N)nc(N)c3)nc2n1CC1CC1(C)C (centres unmarked); 0.104
Cc1nc2ccc(-c3cc(N)nc(N)c3)nc2n1CC1CC1C (centres unmarked); 0.151
Cc1nc2ccc(-c3cc(N)nc(N)c3)nc2n1CCOc1ccc(Cl)cn1; 0.152

I = Cc1nc2ccc(-c3cc(N)nc(N)c3)nc2n1CC1CC1c1ccccc1 (centres unmarked)
II = Cc1nc2ccc(-c3cc(N)nc(N)c3)nc2n1CCOc1cccc(C(F)F)n1
Which value of IC50 is numerically greater: that of I or that of II ? // respond with label for picked entry I
(I: 0.097 µM, II: 0.017 µM)

I = Cc1nc2ccc(-c3cc(N)nc(N)c3)nc2n1C[C@H](C)Sc1ccccc1 (single isomer, unassigned)
II = CCCCc1nc2ccc(-c3cc(N)nc(N)c3)nc2n1C1CCCC1
III = Cc1nc2ccc(-c3cc(N)nc(N)c3)nc2n1CCc1ccc2c(c1)OCO2
Rank ascending by IC50. Give the labels in the order specified. III, I, II
(III: 0.065 µM, I: 0.098 µM, II: 0.171 µM)

a = Cc1nc2ccc(-c3cc(N)nc(N)c3)nc2n1CCOc1ccc(Br)cn1
b = Cc1nc2ccc(-c3cc(N)nc(N)c3)nc2n1CC(C)C
Which value of IC50 is numerically greater: that of a or that of b ? // respond with label for picked entry a

I = CCC(CC)Cn1c(C)nc2ccc(-c3cc(N)nc(N)c3)nc21
II = Cc1nc2ccc(-c3cc(N)nc(N)c3)nc2n1C[C@@H](C)Oc1ccc(F)cn1 (single isomer, unassigned)
Which value of IC50 is numerically greater: that of I or that of II ? // respond with label for picked entry II
(II: 0.237 µM, I: 0.108 µM)
